Molecular target: E3 ubiquitin-protein ligase XIAP (Homo sapiens) (UniProt P98170)
Sequence (P98170 whole entry, looked up): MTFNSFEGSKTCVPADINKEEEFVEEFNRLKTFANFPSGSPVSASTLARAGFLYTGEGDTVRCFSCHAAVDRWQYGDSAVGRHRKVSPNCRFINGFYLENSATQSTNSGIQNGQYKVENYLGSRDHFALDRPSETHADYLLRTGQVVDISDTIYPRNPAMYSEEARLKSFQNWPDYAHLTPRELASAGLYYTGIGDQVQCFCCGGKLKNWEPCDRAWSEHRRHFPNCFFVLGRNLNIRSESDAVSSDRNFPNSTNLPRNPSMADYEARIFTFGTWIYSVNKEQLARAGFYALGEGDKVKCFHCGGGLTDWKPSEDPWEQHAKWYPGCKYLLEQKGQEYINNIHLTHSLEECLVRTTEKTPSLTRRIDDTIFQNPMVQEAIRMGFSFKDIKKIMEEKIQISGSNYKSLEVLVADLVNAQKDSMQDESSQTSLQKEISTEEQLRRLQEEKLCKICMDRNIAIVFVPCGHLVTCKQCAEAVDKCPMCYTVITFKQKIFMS
Experiment: XIAP binders, primary screen, biophysical, small-molecule microarray, fluorescence 635 nm (AID 1181);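 also: score merges 667 nm emission and signal to noise over triplicate slides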
Conditions: small-molecule microarray binding, higher = more signal
If the reported composite z-score equals or exceeds -0.1, assign 1. If not, assign 0.

Prompt: Kindly determine if composite z-score recorded for CCN1C(=O)C2CC(=O)C3C(CN(S(=O)(=O)c4ccc(C)cc4)C3c3ccc(C)cc3)C2C1=O (stereo unspecified) is above or exactly -0.1.
Completion: 0

Prompt: Kindly determine if composite z-score recorded for CCOC(=O)C1=CCC(c2ccncc2)N(S(=O)(=O)c2ccc(C)cc2)C1 (stereo unspecified) is above or exactly -0.1.
Completion: 0

Prompt: Kindly determine if composite z-score recorded for O=C1N(Cc2ccccc2)Cc2ccccc2C[C@@]12COC(c1ccc(OCCCO)cc1)=N2 is above or exactly -0.1.
Completion: 0

Prompt: Kindly determine if composite z-score recorded for CN1C(=O)C2C=CC(C(O)c3cccs3)N(N(c3ccccc3)c3ccccc3)C2C1=O (stereo unspecified) is above or exactly -0.1.
Completion: 1

Prompt: Kindly determine if composite z-score recorded for C[C@]1(C(=O)NC2CC2)c2ccccc2C(=O)N(Cc2cc(F)cc(C(F)(F)F)c2)[C@H]1c1ccc(CO)cc1 is above or exactly -0.1.
Completion: 1

Prompt: Kindly determine if composite z-score recorded for CO[C@H]1O[C@H](CO)[C@@H](OC(=O)Nc2cccc(F)c2)[C@H](OC(=O)Nc2ccc3c(c2)OCO3)[C@@H]1OC(=O)Nc1ccc2c(c1)OCO2 is above or exactly -0.1.
Completion: 1

Prompt: Kindly determine if composite z-score recorded for COc1ccc(CCNC(=O)[C@@]2(c3ccc([N+](=O)[O-])cc3)CC(=O)N(C3CCCCC3)[C@@H]2c2ccc(CO)cc2I)cc1 is above or exactly -0.1.
Completion: 0

Prompt: Kindly determine if composite z-score recorded for C=C(C(=O)CC[C@@H](OC(=O)c1ccccc1-c1ccccc1C(=O)O)c1ccc(CO)o1)C(C)C is above or exactly -0.1.
Completion: 0

Prompt: Kindly determine if composite z-score recorded for C=CC[C@H](O)c1ccc(O)c2ccccc12 is above or exactly -0.1.
Completion: 0

Prompt: Kindly determine if composite z-score recorded for COc1ccc(CCNC(=O)[C@@]2(C)c3ccccc3C(=O)N(Cc3ccc(OC(F)(F)F)cc3)[C@H]2c2ccc(CO)cc2)cc1 is above or exactly -0.1.
Completion: 1

Prompt: Kindly determine if composite z-score recorded for C[N+](C)(C)CCCC[C@@H]1NC(=O)[C@H]2C[C@@H](C(=O)O)[C@@H](c3ccc(O)cc3)N2C1=O is above or exactly -0.1.
Completion: 1
